Target: hSERT (Homo sapiens)
Sequence (P31645 whole entry): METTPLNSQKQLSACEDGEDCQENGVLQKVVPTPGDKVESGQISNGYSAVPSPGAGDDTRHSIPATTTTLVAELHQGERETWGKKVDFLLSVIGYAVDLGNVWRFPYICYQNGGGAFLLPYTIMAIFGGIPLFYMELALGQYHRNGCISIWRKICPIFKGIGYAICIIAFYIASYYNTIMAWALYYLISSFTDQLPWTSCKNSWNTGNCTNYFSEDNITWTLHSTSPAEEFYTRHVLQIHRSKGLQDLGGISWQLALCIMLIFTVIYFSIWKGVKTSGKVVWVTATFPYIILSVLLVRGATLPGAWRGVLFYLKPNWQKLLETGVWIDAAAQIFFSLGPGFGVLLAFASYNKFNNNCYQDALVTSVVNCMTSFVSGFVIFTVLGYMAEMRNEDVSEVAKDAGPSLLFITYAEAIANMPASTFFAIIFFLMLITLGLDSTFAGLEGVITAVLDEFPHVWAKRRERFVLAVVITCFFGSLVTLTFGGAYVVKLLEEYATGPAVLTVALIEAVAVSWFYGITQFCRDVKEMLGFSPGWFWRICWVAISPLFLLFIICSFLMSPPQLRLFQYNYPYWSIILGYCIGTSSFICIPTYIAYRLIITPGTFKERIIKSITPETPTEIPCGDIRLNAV
Experiment: hSERT neurotransmitter uptake assay (3H-5-HT), Assay 2
Format: cell-based
Parameters: expressed in transfected cells; host or cells: HEK-293
Details: serotonin reuptake inhibition, 3H-5-HT uptake, HEK-293 hSERT cells (values without asterisk); read-out: SERT pIC50 (converted)
measurement.name: IC50

Reference set, count: 5
# compound, result
records = [
    ("CC[C@H](Oc1ccc(Cl)c(C)c1)[C@H]1CCNC1", "≤ 0.01 µM"),
    ("Cc1ccc(O[C@@H](C2CC2)[C@H]2CCNC2)c(C)c1", "≤ 0.01 µM"),
    ("CCC[C@H](Oc1ccccc1Cl)[C@H]1CCNC1", "≤ 0.1 µM"),
    ("CC(C)CC(Oc1c(Cl)cccc1Cl)C1CCNC1 (centres unmarked)", "≤ 0.01 µM"),
    ("Clc1cccc(Cl)c1O[C@@H](C1CC1)[C@H]1CCNC1", "≤ 0.316 µM"),
]

Consider now this further compound.
Prompt line: What measured IC50 goes with CC(C)CC(Oc1cccc(C(F)(F)F)c1Cl)C1CCNC1 (centres unmarked) ?
Response line: ≤ 0.01 µM
